Source of measurements: paper PMC10867212

assay: Steady-state plasma pharmacokinetics of intravenous polymyxin B in critically ill patients (non-compartmental analysis); assay type: in vivo, human; conditions: human, iv, young group <65 years (n = 6), iv, steady state, non-compartmental, mean ± SD, SD, read-out: Volume of distribution
Where a SMILES comes first, the peptide text is derived from it. Bridges are numbered along the chain shown (N, C = ends). [ ]: non-standard residue; d: D form. The star is where a group is joined. X1 = CC[C@H](C)CCCCC(=O)*; Dab = NCC[C@H](N)C(=O)O
readout.label: Vd (L)

1) CC[C@H](C)CCCCC(=O)N[C@@H](CCN)C(=O)N[C@H](C(=O)N[C@@H](CCN)C(=O)N[C@H]1CCNC(=O)[C@H]([C@@H](C)O)NC(=O)[C@H](CCN)NC(=O)[C@H](CCN)NC(=O)[C@H](CC(C)C)NC(=O)[C@@H](Cc2ccccc2)NC(=O)[C@H](CCN)NC1=O)[C@@H](C)O [polymyxin B] (X1-[Dab]T[Dab][Dab][Dab][dF]L[Dab][Dab]T; lactam 4-C)	22.3
